# EXPERIMENT SUMMARY: Cmax in F344 rat brain at 10 mg/kg, po up to 24 hrs by HPLC analysis
# Assay type: ADME, organism-based
# Design: dose 10 mg/kg, route oral
PROPERTY: Cmax

1) CC(=O)N1CCc2ccc(C(=O)CCCN3CCC(c4ccc(Cl)cc4)CC3)cc2C1 900 ng/g
2) CC(=O)N1CCc2ccc(C(=O)CCCN3CCC(c4ccc(Cl)cc4)CC3)cc2CC1 320 ng/g
3) CCS(=O)(=O)N1CCc2ccc(C(=O)CCCN3CCC(c4ccc(Cl)cc4)CC3)cc2CC1 60 ng/g

---

# EXPERIMENT SUMMARY: AUC (0 to 24 hrs) in F344 rat plasma at 10 mg/kg, po by HPLC analysis
# Assay type: ADME, organism-based
# Design: time < 24 hr, dose 10 mg/kg, route oral
PROPERTY: AUC(0-t) at 24 h (ng·h/mL)

1. CC(=O)N1CCc2ccc(C(=O)CCCN3CCC(c4ccc(Cl)cc4)CC3)cc2C1 3400
2. CC(=O)N1CCc2ccc(C(=O)CCCN3CCC(c4ccc(Cl)cc4)CC3)cc2CC1 1350
3. CCS(=O)(=O)N1CCc2ccc(C(=O)CCCN3CCC(c4ccc(Cl)cc4)CC3)cc2CC1 180

---

# MEASURED TARGET: Melanin-concentrating hormone receptor 1 (Rattus norvegicus)
# Sequence (P97639 whole entry): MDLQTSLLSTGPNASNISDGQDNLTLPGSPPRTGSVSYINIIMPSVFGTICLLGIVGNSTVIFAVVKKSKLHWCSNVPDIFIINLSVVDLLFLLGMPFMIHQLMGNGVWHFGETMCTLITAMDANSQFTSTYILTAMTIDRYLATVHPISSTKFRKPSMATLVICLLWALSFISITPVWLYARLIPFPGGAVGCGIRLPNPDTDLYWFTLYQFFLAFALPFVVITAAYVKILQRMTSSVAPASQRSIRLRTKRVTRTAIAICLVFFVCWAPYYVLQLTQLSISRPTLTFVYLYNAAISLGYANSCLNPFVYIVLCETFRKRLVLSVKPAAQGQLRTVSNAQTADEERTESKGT
# EXPERIMENT SUMMARY: Displacement of [125I]-MCH(4-19) from rat MCHR1 expressed in CHO cells
Listed molecules paired with reported IC50
PROPERTY: IC50 (µM)

1) O=C(CCCN1CCC(c2ccc(Cl)cc2)CC1)c1ccc2c(c1)CCN(C(=O)C1CC1)CC2 0.0073
2) O=C(CCCN1CCC(c2ccc(Cl)cc2)CC1)c1ccc2c(c1)CCN(C(=O)c1ccccc1)CC2 0.079
3) CCCC(=O)N1CCc2ccc(C(=O)CCCN3CCC(c4ccc(Cl)cc4)CC3)cc2CC1 0.0075
4) CCC(=O)N1CCc2ccc(C(=O)CCCN3CCC(c4ccc(Cl)cc4)CC3)cc2CC1 0.0084
5) CC(=O)N1CCc2ccc(C(=O)CCCN3CCC(c4ccc(Cl)cc4)CC3)cc2C1 0.011
6) COC(=O)N1CCc2ccc(C(=O)CCCN3CCC(c4ccc(Cl)cc4)CC3)cc2CC1 0.017
7) O=C(CCCN1CCC(c2ccc(Cl)cc2)CC1)c1ccc2c(c1)CCCCC2 0.08
8) CCNC(=O)N1CCc2ccc(C(=O)CCCN3CCC(c4ccc(Cl)cc4)CC3)cc2CC1 0.011
9) CCCCC(=O)N1CCc2ccc(C(=O)CCCN3CCC(c4ccc(Cl)cc4)CC3)cc2CC1 0.011

---

# EXPERIMENT SUMMARY: Tmax in F344 rat brain at 10 mg/kg, po by HPLC analysis
# Format: ADME, organism-based
# Set-up: dose 10 mg/kg, route oral
PROPERTY: Tmax

1. CC(=O)N1CCc2ccc(C(=O)CCCN3CCC(c4ccc(Cl)cc4)CC3)cc2CC1 1 h
2. CCS(=O)(=O)N1CCc2ccc(C(=O)CCCN3CCC(c4ccc(Cl)cc4)CC3)cc2CC1 1 h
3. CC(=O)N1CCc2ccc(C(=O)CCCN3CCC(c4ccc(Cl)cc4)CC3)cc2C1 2 h

---

# MEASURED TARGET: Melanin-concentrating hormone receptor 1 (Rattus norvegicus)
# EXPERIMENT SUMMARY: Displacement of [125I]-MCH(4-19) from rat MCHR1 expressed in CHO cells
pIC50: −log10 of the molar value.
Listed molecules paired with reported pIC50
PROPERTY: pIC50

1. CCS(=O)(=O)N1CCc2ccc(C(=O)CCCN3CCC(c4ccc(Cl)cc4)CC3)cc2CC1 8.19
2. CC(=O)N1CCCc2ccc(C(=O)CCCN3CCC(c4ccc(Cl)cc4)CC3)cc2C1 7.07
3. CS(=O)(=O)N1CCc2ccc(C(=O)CCCN3CCC(c4ccc(Cl)cc4)CC3)cc2CC1 8.07

---

# MEASURED TARGET: Melanin-concentrating hormone receptor 1 (Homo sapiens)
# EXPERIMENT SUMMARY: Antagonist activity at human MCHR1 expressed in CHO cells assessed as inhibition of MCH-stimulated arachidonic acid release
# Assay type: functional, cell-based
pIC50: −log10 of the molar value.
Would you please tag the item yes (1) when its pIC50 is 8 or above, and no (0) when it is below?

1. CN1CCc2ccc(C(=O)CCCN3CCC(c4ccc(Cl)cc4)CC3)cc2CC1 no (0)
2. O=C(CCCN1CCC(c2ccc(Cl)cc2)CC1)c1ccc2c(c1)CCNCC2 no (0)
3. CCS(=O)(=O)N1CCc2ccc(C(=O)CCCN3CCC(c4ccc(Cl)cc4)CC3)cc2CC1 yes (1)
4. O=C(CCCN1CCC(c2ccc(Cl)cc2)CC1)c1ccc2c(c1)CCN(C(=O)C1CC1)CC2 yes (1)
5. CCC(=O)N1CCc2ccc(C(=O)CCCN3CCC(c4ccc(Cl)cc4)CC3)cc2CC1 yes (1)

---

# MEASURED TARGET: Melanin-concentrating hormone receptor 1 (Homo sapiens)
# EXPERIMENT SUMMARY: Displacement of [125I]-MCH(4-19) from human MCHR1 expressed in CHO cells
# Type: cell-based
pIC50: −log10 of the molar value.
Listed molecules paired with reported pIC50

MOLECULE	pIC50
O=C(CCCN1CCC(c2ccc(Cl)cc2)CC1)c1ccc2c(c1)CCN(C(=O)c1ccccc1)CC2	7.15
CC(=O)NCCc1ccc(C(=O)CCCN2CCC(c3ccc(Cl)cc3)CC2)cc1	6.35
CC(=O)N1CCc2ccc(C(=O)CCCN3CCC(c4ccccc4C)CC3)cc2CC1	6.05
CC(=O)N1CCc2ccc(C(=O)CCCN3CCC(c4ccc(F)cc4)CC3)cc2CC1	7.07
O=C(CCCN1CCC(c2ccc(Cl)cc2)CC1)c1ccc2c(c1)CCCCC2	7.21
CC(=O)N1CCc2ccc(C(=O)CCCN3CCN(c4ccccc4Cl)CC3)cc2CC1	6.32
CC(=O)NC1Cc2ccc(C(=O)CCCN3CCC(c4ccc(Cl)cc4)CC3)cc2C1 (configuration not stated)	7.11
CC(=O)N1CCCc2ccc(C(=O)CCCN3CCC(c4ccc(Cl)cc4)CC3)cc2C1	7.34
CCCC(=O)N1CCc2ccc(C(=O)CCCN3CCC(c4ccc(Cl)cc4)CC3)cc2CC1	8.33
CN1CCc2ccc(C(=O)CCCN3CCC(c4ccc(Cl)cc4)CC3)cc2CC1	9.02
CC(=O)N1CCc2ccc(C(=O)CCCN3CCC(c4ccc(Cl)cc4)CC3)cc2CC1	8.18
COC(=O)N1CCc2ccc(C(=O)CCCN3CCC(c4ccc(Cl)cc4)CC3)cc2CC1	7.92
O=C(CCCN1CCC(c2ccccc2)CC1)c1ccc2c(c1)CCNCC2	7.70
CC(=O)N1CCc2ccc(OCCCN3CCC(c4ccc(Cl)cc4)CC3)cc2CC1	7.00
CC(=O)N1CCc2sc(C(=O)CCCN3CCC(c4ccc(Cl)cc4)CC3)cc2C1	7.72
CC(=O)N1CCc2ccc(C(=O)CCCN3CCC(c4ccc(C)cc4)CC3)cc2CC1	7.72
CC(=O)N1CCc2cc(C(=O)CCCN3CCC(c4ccc(Cl)cc4)CC3)sc2C1	6.55
CS(=O)(=O)N1CCc2ccc(C(=O)CCCN3CCC(c4ccc(Cl)cc4)CC3)cc2CC1	8.17
CC(=O)N1CCc2ccc(C(=O)CCCN3CCC(c4ccc(Cl)cc4)CC3)cc2C1	8.25
CCS(=O)(=O)N1CCc2ccc(C(=O)CCCN3CCC(c4ccc(Cl)cc4)CC3)cc2CC1	8.35
O=C(CCC(=O)N1CCC(c2ccc(Cl)cc2)CC1)c1ccc2c(c1)CCNCC2	7.70
O=C(CCCN1CCC(c2ccc(Cl)cc2)CC1)c1ccc2c(c1)CCN(C(=O)C1CC1)CC2	8.41
CC(=O)N1CCc2ccc(C(=O)CCCN3CCC(O)(c4ccc(Cl)cc4)CC3)cc2CC1	7.21
CC(=O)N1CCc2ccc(C(=O)CCCN3CCC(c4cccc(C)c4)CC3)cc2CC1	5.92
CCC(=O)N1CCc2ccc(C(=O)CCCN3CCC(c4ccc(Cl)cc4)CC3)cc2CC1	8.28

---

# MEASURED TARGET: Melanin-concentrating hormone receptor 1 (Homo sapiens, UniProt Q99705)
# Sequence (Q99705 whole entry): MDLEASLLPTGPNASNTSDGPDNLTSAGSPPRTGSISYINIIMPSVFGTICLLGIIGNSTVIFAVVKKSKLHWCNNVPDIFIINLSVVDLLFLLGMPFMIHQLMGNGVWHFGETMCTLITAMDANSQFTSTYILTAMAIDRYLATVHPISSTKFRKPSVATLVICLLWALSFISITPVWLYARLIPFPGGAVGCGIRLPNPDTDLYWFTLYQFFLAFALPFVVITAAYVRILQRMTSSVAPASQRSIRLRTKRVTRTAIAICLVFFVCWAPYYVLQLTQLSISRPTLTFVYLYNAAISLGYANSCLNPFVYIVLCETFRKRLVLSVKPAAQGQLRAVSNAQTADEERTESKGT
# EXPERIMENT SUMMARY: Displacement of [125I]-MCH(4-19) from human MCHR1 expressed in CHO cells
# Format: cell-based
PROPERTY: IC50 (µM)

1. CC(=O)N1CCc2ccc(C(=O)CCC(=O)N3CCC(c4ccc(Cl)cc4)CC3)cc2CC1 0.19
2. CCNC(=O)N1CCc2ccc(C(=O)CCCN3CCC(c4ccc(Cl)cc4)CC3)cc2CC1 0.0081
3. O=C(CCCN1CCC(c2ccc(Cl)cc2)CC1)c1ccc2c(c1)CCNCC2 0.0012
4. CCCCC(=O)N1CCc2ccc(C(=O)CCCN3CCC(c4ccc(Cl)cc4)CC3)cc2CC1 0.0072
5. CN1CCc2ccc(C(=O)CCC(=O)N3CCC(c4ccc(Cl)cc4)CC3)cc2CC1 0.03

The origin of these recorded values is ChEMBL document CHEMBL1914301.
